# experiment_summary: RPMI8226 myeloma cell viability, profiling panel, resazurin fluorescence, basal, 24 h, PK04 Diversity Set (AID 1180);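 also: RPMI8826 multiple myeloma cell line at 5000 cells per well; test concentration not given here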
# run_parameters: higher = more signal
# z-score per entry
property: z-score

1. O=C(CS)NCCCCCNC(=O)[C@H]1C[C@H]2C(=O)N3CCC[C@H]3C(=O)N2[C@H]1c1ccc(O)cc1	1.09
2. O=C1OCC=C[C@H]2OC34C=CCN(Cc5ccccc5)C(=O)[C@H]3N(CCO)C(=O)[C@@H]4[C@@H]12 (some centres undefined)	0.894
3. CC(=O)NCCCC[C@@H]1NC(=O)[C@H]2C[C@@H](C(=O)NCCCCCCN(C)C)[C@@H](c3cccc(OCCO)c3)N2C1=O	-0.696
4. CC[C@H]1C2=C3C(CC[C@H]4C(OC)OC[C@](C)([C@@H]34)N(C(=O)OC(C)(C)C)C2)C(CO)C1CO (some centres undefined)	-0.141

---

# Tested on: Wnt5a (protein binding on small-molecule microarray)
# experiment_summary: Wnt5a binders on small-molecule microarray, primary screen, biophysical, 635/667 nm fluorescence (AID 1142);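 also: fluorescence read at 667 nm with signal to noise per printed feature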
# run_parameters: 635 nm fluorescence, higher = more signal
property: composite z-score

1. COC(=O)C[C@H]1O[C@]2(C(=O)N(C)c3ccccc32)[C@@H](C)[C@@H]1[Si](C)(C)c1ccc(OC)cc1	0.259
2. CO[C@]12C=C(Br)[C@@H](C[C@@H]1c1ccccc1)[C@@]1(CO1)C2=O	-0.002
3. CCCN1C(=O)[C@@]2(CCS(=O)(=O)c3ccccc3)N=C(c3ccc(OCCCO)cc3)O[C@H]2c2ccccc21	0.286
4. O=C1c2ccccc2[C@](Cc2ccccc2I)(C(=O)NCc2ccccc2)[C@H](c2ccc(CO)cc2)N1Cc1ccccc1C(F)(F)F	-0.246
5. CC(C)(C)OC(=O)CC[C@@]1(C(=O)NCc2ccccc2)N=C(c2ccc(OCCCO)cc2)O[C@@H]1c1ccccc1	0.337
6. CCCC[C@@H]1C[C@H]1[C@@H](NC(=O)c1cccs1)c1ccc(Cl)cc1	-0.29
7. CC(=O)Nc1ccc([C@H]2[C@H](C)CC[C@H]3C(=O)N4[C@@H](CC[C@@H](C)[C@@H]4c4ccc(NC(C)=O)cc4)C(=O)N32)cc1	0.165
8. COc1ccc([Si](C)(C)[C@@H]2[C@@H](CCO)O[C@]3(C(=O)N(Cc4ccc(NC(=O)[C@H](C)O)cc4)c4ccccc43)[C@H]2C)cc1	0.186

---

# System: Sonic hedgehog protein (Shh)
# experiment_summary: small-molecule binders of Shh protein, primary screen, biochemical, small-molecule microarray, 635/667 nm fluorescence (AID 1151);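 also: Shh protein binding to compounds spotted on small-molecule microarray slides; score combines spot fluorescence intensity with signal-to-noise across triplicate slides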
# run_parameters: small-molecule microarray binding, 635 nm fluorescence; higher = more signal
property: composite z-score

1. N#Cc1ccc(NN2C(C(O)CCc3ccccc3)C=CC3C(=O)N(c4ccccc4)C(=O)C32)cc1 (centres undefined)	-0.0548
2. CC/C=C/C(=O)N(C[C@@H]1CCCO1)[C@@H]1CC(C(=O)NCCO)=C[C@H](Oc2c(I)cc(CO)cc2OC)[C@H]1O	0.239
3. C[C@@H]1CC[C@H]2C(=O)N3[C@@H](CC[C@@H](C)[C@@H]3c3cccc(N4CCOCC4)c3)C(=O)N2[C@H]1c1cccc(Br)c1	0.994
4. CC(C)(C)OC(=O)CC[C@@]1(C(=O)NCc2ccccc2)N=C(c2ccc(OCCCO)cc2)O[C@@H]1c1ccccc1	-0.282
5. CO[C@@H]1COC(=O)CC=C[C@H](C)COC(=O)[C@H](Cc2ccccc2)NC(=O)CC=C[C@H]1C	1.73
6. C=CCC(OC(C)=O)[C@@H]1[C@@H](N(Cc2cc3ccccc3o2)C(=O)Cc2ccc(F)cc2)c2cc(OCCCO)ccc2N1C(=O)c1ccc(-c2ccccc2)cc1 (some centres undefined)	0.0351
7. C=CCNC(=O)[C@@H]1[C@H]2C(=O)O[C@H](c3ccccc3)[C@H](c3ccccc3)N2[C@H](c2ccc(OCCO)cc2)[C@@]12C(=O)N(C(=O)OCCOC)c1ccc(C#CC3(O)CCCCCC3)cc12	1.1
8. CCOC(=O)C[C@H]1[C@H](OC(=O)c2ccccc2-c2ccccc2)[C@@H](NC(=O)C2CCCCC2)c2cc(OCCCO)ccc2N1C(=O)c1ccccc1	1.1
9. CC(C)[Si](OCC[C@H]1O[C@]2(C(=O)N(Cc3ccccc3)c3ccccc32)[C@@H](C)[C@@H]1[Si](C)(C)O)(C(C)C)C(C)C	0.255
10. COCCOC(=O)N1C(=O)[C@@]2(c3cc(C#CCNC(N)=O)ccc31)[C@H](c1ccc(OCCO)cc1)N1[C@H](c3ccccc3)[C@H](c3ccccc3)OC(=O)[C@H]1[C@@H]2C(=O)N1CCCCCCC1	0.932
11. C=C(CCCC)/C(=C/C[C@@H](OC(=O)c1ccncc1)c1cccc(OCCO)c1)c1cc(C(=O)OC)ccc1OC	1.47
12. COc1ccc([C@H]2C[C@H]3C(Br)=C[C@]2(OC)C(=O)[C@]32CO2)cc1	-0.038
13. CC[C@@H]1C=C(C(=O)O)[C@H](c2ccccc2)N1S(=O)(=O)c1ccc([N+](=O)[O-])cc1	-0.335
14. O=C1c2ccccc2[C@](Cc2ccccc2I)(C(=O)O)[C@H](c2ccc(CO)cc2)N1C1CCCCC1	0.636
15. COCCOC(=O)N1C(=O)[C@@]2(c3cc(C#CCNC(N)=O)ccc31)[C@H](c1ccccc1OCCO)N1[C@H](c3ccccc3)[C@H](c3ccccc3)OC(=O)[C@H]1[C@@H]2C(=O)NC[C@H](O)c1ccccc1	1.87
16. CCN1C(C)=C(C(=O)OC)[C@@H](c2ccccc2)N2C(=O)[C@](O)(C(=O)OC)[C@@H](c3ccccc3)C(C(C)=O)=C12	1.75
17. CC(c1ccccc1)C(O)C1C=CC2C(=O)N(C)C(=O)C2N1N(c1ccccc1)c1ccccc1 (centres undefined)	-0.586
18. O=C/C=C/c1ccc(/C=C/c2ccccc2)cc1	0.609
19. CC(C)N1CC=CC23O[C@@H]4/C=C\CCCOC(=O)C4[C@H]2C(=O)N(CCO)[C@@H]3C1=O (some centres undefined)	0.289
20. C#CCCCON=C1C[C@@H](O)[C@@H](O)[C@@H]2[C@@H]3C(=O)N(Cc4ccc5c(c4)OCO5)C(=O)[C@@H]3CC[C@H]12	1.42
21. O=C1O[C@H](c2ccccc2)[C@H](c2ccccc2)N2[C@H]1[C@@H](C(=O)Nc1nc3ccccc3s1)[C@]1(C(=O)Nc3ccc(C#CC4=CCCCC4)cc31)[C@H]2c1ccccc1OCCO	1.63
22. CC(C)(C)OC(=O)CC[C@]1(C(=O)NCCN2CCOCC2)N=C(c2ccc(OCCCO)cc2)O[C@H]1c1ccccc1CN=[N+]=[N-]	-0.577
23. C[C@]1(C(=O)NCCN2CCOCC2)c2ccccc2C(=O)N(Cc2ccccc2)[C@H]1c1ccc(CO)cc1	-0.928
24. C=CCNC(=O)[C@H]1[C@@H]2C(=O)O[C@@H](c3ccccc3)[C@@H](c3ccccc3)N2[C@@H](c2ccccc2OCCO)[C@]12C(=O)N(C(=O)OCCOC)c1ccc(C#CCNC(N)=O)cc12	0.633
25. C=C(COC)/C(=C/C[C@H](OC(C)=O)c1ccc(OCCO)cc1)c1cnc2ccccc2c1	1.99
26. CCCC=C(CCC)[C@@H](NC(=O)c1ccccc1)c1ccccc1	-0.289
27. CN1C2C=C(c3ccc(CO)cc3)C(C3C(=O)N(C(N)=O)C(=O)C32)C1c1cccs1 (centres undefined)	1.4
28. CO[C@H]1COC(=O)[C@@H](Cc2ccccc2)NC(=O)[C@@H](C)COC(=O)CC=C[C@@H]1C	1.02
29. C=CC(=O)O[C@@H](Cc1ccccc1)[C@H]1C2C=CCCC=C2CN1Cc1cccc(Cl)c1 (some centres undefined)	-0.0211
